- method_description: qHTS of pediatric cancer cell lines to identify multiple opportunities for drug repurposing: Primary screen for RD cells (AID 1347104);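 also: plate controls were DMSO for no effect and bortezomib for full effect; nearly all actives have a fitted effect of over 55% in size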
- test_settings: RD rhabdomyosarcoma viability, CellTiter-Glo luminescence, 48 h; series mostly up to 46 µM
Results filed as inconclusive are left out. Active and inactive are the calls of the source. Calls follow the shape of the dose curve; as a rule, active = well fitted cell-killing curve with a large enough effect; inconclusive = small, poorly fitted or top-dose-only effect; inactive = flat fitted curve, though single readings scatter.
readout: outcome

Past entries and their recorded results:
CC[N+](C)(C)c1cccc(O)c1
inactive
Cc1cc(C)c(/C=C2\C(=O)Nc3ccccc32)[nH]1
inactive
CCc1c(C)[nH]c2c1C(=O)C(CN1CCOCC1)CC2 (stereo unspecified)
inactive
COc1ccc2c(c1OC)C(=O)O[C@@H]2[C@H]1c2c(cc3c(c2OC)OCO3)CCN1C
inactive
CN1C(=O)CC[C@H]1c1cccnc1
inactive

Switching to the query record.
Dear colleague, I am looking for the recorded outcome of the following compound: `CN(C)C/C=C(/c1ccc(Br)cc1)c1cccnc1`
inactive

###

- method_description: Drug repurposing screens with cells derived from glioblastoma tumor samples (AID 1345199); also: % is scaled to controls: 0 for no effect and ±100 for the full control effect; nearly all actives have a fitted effect of over 40% in size
- test_settings: GBM patient neurospheres viability, ATP luminescence, 48 h; at 46.1 µM (top of the series); tumour line C
Records with an inconclusive call do not appear.
In this section, each of the compounds is paired with its reported activity, negative = cell killing.
All answers are understood in %, so give the number only.

The cases that follow already have their activity, negative = cell killing on record.
NC/C=C/C(=O)O
-22.1
COc1cc(Cc2cnc(N)nc2N)cc(OC)c1OC
-10.9
Cc1ccc(S(=O)(=O)NC(=O)NN2CCCCCC2)cc1
-5.87

So what's the measured activity, negative = cell killing for this one? `O=C(CCNNC(=O)c1ccncc1)NCc1ccccc1`
1.75

Same question for `CCCN(CCC)CCc1cccc2c1CC(=O)N2` please.
2.12

Query CCCN(CCC)C(=O)C(CCC(=O)O)NC(=O)c1ccccc1 (configuration not stated) next
-13.4

Okay, and CC(C(=O)O)c1ccc(CC2CCCC2=O)cc1 (configuration not stated) ?
-19.4

Lookup CC(N=C(NC#N)Nc1ccncc1)C(C)(C)C (configuration not stated)
-1.36

Thanks! And `O=C1CC2(CCCC2)CC(=O)N1CCCCN1CCN(c2ncccn2)CC1` ?
-16.7

Now consider `CN(C)[C@@H]1C(=O)C(C(N)=O)=C(O)[C@@]2(O)C(=O)C3=C(O)c4c(O)ccc(Cl)c4[C@@H](O)[C@H]3C[C@@H]12` and answer again.
-29.4

Same again, this time with `CN(C)C(=O)Oc1ccc[n+](C)c1`
-15.6

Then this compound: C=CCc1ccccc1OCC(O)CNC(C)C (configuration not stated)
-6.66

###

- method_description: Quantitative high throughput screen for delayed death inhibitors of the malarial parasite plastid, 96 hour incubation (AID 488745); also: nearly all actives have a fitted effect of over 70% in size
- test_settings: Plasmodium falciparum growth; series mostly up to 28.7 µM
Records with an inconclusive call do not appear. Activity calls are given as the source filed them. Calls follow the shape of the dose curve; as a rule, active = well fitted inhibition curve with a large enough effect; inconclusive = small, poorly fitted or top-dose-only effect, or effect the other way; inactive = no such curve, though single readings can be large or run the other way.
Result category, one only: label 1 (active), label 0 (inactive)

These solved cases illustrate the format of a correct answer.
Cc1ccc(/C(=C\CN2CCCC2)c2ccccn2)cc1
label 0
O=C1CC2(CCCC2)CC(=O)N1CCCCN1CCN(c2ncccn2)CC1
label 0
Cc1nc2c([nH]1)c(=O)n(C)c(=O)n2Cc1ccco1
label 0
COc1ccc(CCN(C)CCCC(C#N)(c2cc(OC)c(OC)c(OC)c2)C(C)C)cc1OC (stereo unspecified)
label 1
c1cc(CN2CCCCC2)cc(OCCCNc2nc3ccccc3s2)c1
label 1
CCCCCN(CCCCC)C(=O)C(CCC(=O)O)NC(=O)c1ccc(Cl)c(Cl)c1 (stereo unspecified)
label 0
C[N+](C)(C)CCOC(=O)CCC(=O)OCC[N+](C)(C)C
label 0
COCCc1ccc(OCC(O)CNC(C)C)cc1 (stereo unspecified)
label 0

So what was the verdict on CCN(Cc1ccncc1)C(=O)C(CO)c1ccccc1 (stereo unspecified) in this test?
label 0

// same read-out, input: `Cc1ccc(S(=O)(=O)NC(=O)NN2CCCCCC2)cc1`
label 0

Also need `Fc1ccc(C(c2ccc(F)cc2)N2CCN(C/C=C/c3ccccc3)CC2)cc1` , thanks.
label 1

###

- Test system: CP260
- method_description: qHTS profiling for inhibitors of Plasmodium falciparum proliferation (AID 504749); also: nearly all actives have a fitted effect of over 60% in size
- test_settings: P. falciparum in erythrocytes, SYBR Green DNA, 72 h; series mostly up to 28.7 µM
Results filed as inconclusive are left out. Active and inactive are the calls of the source. The call rests on the fitted dose curve; in most records, active means well fitted inhibition curve with a large enough effect; inconclusive means small, poorly fitted or top-dose-only effect; inactive means flat fitted curve, though single readings scatter.
Pick one and only one: Yes (active), No (inactive)

CNC1(C)C2CCC(C2)C1(C)C (stereo unspecified)
No
Cc1nnc(SCC2=C(C(=O)O)N3C(=O)[C@@H](NC(=O)Cn4cnnn4)[C@H]3SC2)s1
No
CCCCNc1ccc(C(=O)OCCN(C)C)cc1
No
CN(C)C(=O)Oc1cccc([N+](C)(C)C)c1
No
COc1cc(C(=O)OCCCN2CCCN(CCCOC(=O)c3cc(OC)c(OC)c(OC)c3)CC2)cc(OC)c1OC
Yes

Could you check what this test reported for `Cc1scc2c1N(C(=O)CN1CCN(C)CC1)c1ccccc1NC2=O` ?
No

Further, for `CC(C)NNC(=O)c1ccncc1` ?
No

Next up: `CCC(=O)c1ccc2c(c1)N(CCCN(C)C)c1ccccc1S2`
Yes

Input `COC(=O)[C@@H](N)Cc1ccc(O)c(O)c1`
No

For `CN1CCN(C2=Nc3ccccc3Oc3ccc(Cl)cc32)CC1` then?
No

Here is the next molecule: `O=c1[nH]c(=O)n([C@H]2C[C@H](O)[C@@H](CO)O2)cc1Br`
No

###

- Test system: CRL-7250
- method_description: Cytotoxic Profiling of Annotated Libraries Using Quantitative High-Throughput Screening (AID 1296008); also: % is scaled to controls: 0 for no effect and ±100 for the full control effect; nearly all actives have a fitted effect of over 60% in size
- test_settings: Five cell lines viability, CellTiter-Glo ATP luminescence, 48-72 h; hits give low values
Results filed as inconclusive are left out.
readout: max response (%)
Give just the numeric value; % need not be written.

Reported max response for `COc1ccc2c(c1OC)C(=O)O[C@@H]2[C@H]1c2c(cc3c(c2OC)OCO3)CCN1C` : what is it?
4.94

// query: `CN(C)CCOC(=O)COc1ccc(Cl)cc1`
-13.3

Try `CN1C(=O)CC[C@H]1c1cccnc1` next.
-11.6

Also, CCCCCN(CCCCC)C(=O)C(CCC(=O)O)NC(=O)c1ccc(Cl)c(Cl)c1 (stereo unspecified) please.
-3.52

Same read-out for `CCCN(CCC)CCc1cccc2c1CC(=O)N2` ?
1.13

Next: NC(Cc1ccc(Cl)cc1)C(=O)O (stereo unspecified)
-4.47

###

Entries and their activation values follow.
- target_desc: Thyrotropin-releasing hormone receptor (Homo sapiens) (UniProt P34981)
- Sequence (P34981 whole entry, looked up): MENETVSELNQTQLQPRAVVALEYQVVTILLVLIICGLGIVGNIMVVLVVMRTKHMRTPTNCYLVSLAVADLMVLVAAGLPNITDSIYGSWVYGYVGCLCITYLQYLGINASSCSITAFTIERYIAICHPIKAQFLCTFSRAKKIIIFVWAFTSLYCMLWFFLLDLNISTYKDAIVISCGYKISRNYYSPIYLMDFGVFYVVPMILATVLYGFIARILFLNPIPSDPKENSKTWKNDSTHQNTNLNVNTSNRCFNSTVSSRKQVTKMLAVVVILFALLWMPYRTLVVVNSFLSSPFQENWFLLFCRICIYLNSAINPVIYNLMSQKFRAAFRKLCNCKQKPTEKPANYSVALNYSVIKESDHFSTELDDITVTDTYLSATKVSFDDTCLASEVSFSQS
- method_description: qHTS for Small Molecule Agonists and Allosteric Enhancers of Human TRH Receptor: Validation Screen for Agonists (AID 493127);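 also: intracellular calcium rise by fluo-8 fluorescence before TRH EC20 addition; 0% is about no effect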
- test_settings: TRH receptor agonist cell assay; at 2 µM; hits give high values
Kindly answer with a numeric value in %, unit omitted.

Look over these answered cases.
CN(C)C/C=C(/c1ccc(Br)cc1)c1cccnc1
0.375
Cc1ccc(S(=O)(=O)NC(=O)NN2CCCCCC2)cc1
0.188
CCCN1C[C@H](CSC)C[C@@H]2c3cccc4[nH]cc(c34)C[C@H]21
1.44
Cc1nc2ccccn2c(=O)c1CCN1CCC(C(=O)c2ccc(F)cc2)CC1
1.44
NC(Cc1ccc(Cl)cc1)C(=O)O (configuration not stated)
0.75

Param readout = activation; param system = Thyrotropin-releasing hormone receptor (Homo sapiens) (UniProt P34981); param query = CNCCC(Oc1ccccc1OC)c1ccccc1 (configuration not stated) ; response: value
2.38

Request: `O=C(CCNNC(=O)c1ccncc1)NCc1ccccc1`
0.188

###

- System: Tov-21-G
- method_description: Primary qHTS to identify gynecologic anti-cancer compounds using libraries of approved drugs and bioactive compounds (AID 1345084); also: % is scaled to controls: 0 for no effect and ±100 for the full control effect; nearly all actives have a fitted effect of over 55% in size
- test_settings: Gynecologic cancer cell panel viability, ATPlite luminescence, 48 h; series mostly up to 57.5 µM
Records with an inconclusive call do not appear. The source made the active and inactive calls. The call rests on the fitted dose curve; in most records, active means well fitted cell-killing curve with a large enough effect; inconclusive means small, poorly fitted or top-dose-only effect, or effect the other way; inactive means flat fitted curve, though single readings scatter.
readout: activity change, negative = cytotoxicity

Example results:
C[C@]12CCC(=O)C=C1CC[C@@H]1[C@@H]2C(=O)C[C@@]2(C)[C@H]1CC[C@]2(O)C(=O)CO
inactive
CC[N+](C)(C)c1cccc(O)c1
inactive
CC(C)(Oc1ccc(CCNC(=O)c2ccc(Cl)cc2)cc1)C(=O)O
inactive
CCOC(=O)C1=C(C)NC(C)=C(C(=O)OC)C1c1cccc(Cl)c1Cl (stereo unspecified)
inactive
C[C@H](CS)C(=O)N1CCC[C@H]1C(=O)O
inactive
NC(Cc1ccc(Cl)cc1)C(=O)O (stereo unspecified)
11.9% [at 0.462 µM] (inactive)
CC(=O)OCC1=C(C(=O)O)N2C(=O)[C@@H](NC(=O)Cc3cccs3)[C@H]2SC1
inactive
O=C(O)CN(CCOCCOCCN(CC(=O)O)CC(=O)O)CC(=O)O
1.63% [at 0.462 µM] (inactive)
CCC(=O)c1ccc2c(c1)N(CCCN(C)C)c1ccccc1S2
inactive
CCN(CC)CC(=O)Nc1c(C)cccc1C
inactive

Okay, now this compound:
Consider the compound shown here: CC(C(=O)O)c1ccc(CC2CCCC2=O)cc1 (stereo unspecified) What is its recorded activity change, negative = cytotoxicity?
inactive

Reference source for all entries: PubChem BioAssay (NCATS)
